Provenance of the data: ChEMBL document CHEMBL2218924

# Tested On: Serine/threonine-protein kinase BRSK1 (Homo sapiens) (UniProt Q8TDC3)
# Sequence (Q8TDC3 whole entry): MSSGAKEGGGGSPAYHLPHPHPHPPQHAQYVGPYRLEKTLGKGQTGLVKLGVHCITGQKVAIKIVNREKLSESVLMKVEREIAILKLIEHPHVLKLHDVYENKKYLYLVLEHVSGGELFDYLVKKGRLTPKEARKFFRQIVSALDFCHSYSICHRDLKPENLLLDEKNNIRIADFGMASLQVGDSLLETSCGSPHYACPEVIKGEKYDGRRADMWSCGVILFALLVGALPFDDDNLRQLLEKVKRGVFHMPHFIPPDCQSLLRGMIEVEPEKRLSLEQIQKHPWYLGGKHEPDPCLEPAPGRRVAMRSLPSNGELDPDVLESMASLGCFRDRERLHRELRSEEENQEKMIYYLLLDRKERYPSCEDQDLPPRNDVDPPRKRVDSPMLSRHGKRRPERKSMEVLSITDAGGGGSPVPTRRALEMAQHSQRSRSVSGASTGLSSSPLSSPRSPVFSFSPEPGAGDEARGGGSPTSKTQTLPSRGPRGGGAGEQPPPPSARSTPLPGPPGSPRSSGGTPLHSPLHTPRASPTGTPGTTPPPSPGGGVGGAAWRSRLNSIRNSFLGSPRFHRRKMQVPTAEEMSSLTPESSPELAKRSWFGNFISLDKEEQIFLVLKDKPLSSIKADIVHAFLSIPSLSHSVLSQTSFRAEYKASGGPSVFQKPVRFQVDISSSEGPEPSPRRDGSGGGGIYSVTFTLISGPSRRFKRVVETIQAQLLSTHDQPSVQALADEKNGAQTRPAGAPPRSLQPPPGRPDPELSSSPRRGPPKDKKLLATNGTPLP
# Experimental Context: at 1 µM
Measured Property: residual activity
The reply should read as a number followed by its unit.

Reference set, count: 5
O=Nc1c(-c2c(O)[nH]c3ccccc23)[nH]c2ccccc12 : 13%
CCC(=O)Nc1ccc2ncnc(Nc3cccc(Br)c3)c2c1 : 55%
C[C@@H](N)[C@H]1CC[C@H](C(=O)Nc2ccncc2)CC1 : 106%
Oc1ccc(-c2nc(-c3ccc(F)cc3)c(-c3ccncc3)[nH]2)cc1 : 102%
CC#CC(=O)Nc1cc2c(Nc3ccc(F)c(Cl)c3)ncnc2cn1 : 87%

**Query** Can you look up the measured residual activity of CN(C)CCCn1cc(C2=C(c3c[nH]c4ccccc34)C(=O)NC2=O)c2ccccc21 for me?
**Result** 42%

**Query** Can you look up the measured residual activity of CCN(CC)CCCCN1c2ccccc2Oc2ccc(Cl)cc21 for me?
**Result** 88%

**Query** Can you look up the measured residual activity of COc1ccc(OC)c2c(=S)c3ccccc3[nH]c12 for me?
**Result** 78%

**Query** Can you look up the measured residual activity of Cc1nc2cc3nc(-c4cccs4)cnc3cc2n1C for me?
**Result** 68%

**Query** Can you look up the measured residual activity of CCOc1cc2ncnc(Nc3cccc(Br)c3)c2cc1OCC for me?
**Result** 12%

**Query** Can you look up the measured residual activity of O=c1cc(-c2cccc3c2Sc2ccccc2S3)oc(N2CCOCC2)c1 for me?
**Result** 102%
